- ASSAYED_TARGET: ROCK2 (Homo sapiens)
- Sequence (O75116 whole entry, species assumed): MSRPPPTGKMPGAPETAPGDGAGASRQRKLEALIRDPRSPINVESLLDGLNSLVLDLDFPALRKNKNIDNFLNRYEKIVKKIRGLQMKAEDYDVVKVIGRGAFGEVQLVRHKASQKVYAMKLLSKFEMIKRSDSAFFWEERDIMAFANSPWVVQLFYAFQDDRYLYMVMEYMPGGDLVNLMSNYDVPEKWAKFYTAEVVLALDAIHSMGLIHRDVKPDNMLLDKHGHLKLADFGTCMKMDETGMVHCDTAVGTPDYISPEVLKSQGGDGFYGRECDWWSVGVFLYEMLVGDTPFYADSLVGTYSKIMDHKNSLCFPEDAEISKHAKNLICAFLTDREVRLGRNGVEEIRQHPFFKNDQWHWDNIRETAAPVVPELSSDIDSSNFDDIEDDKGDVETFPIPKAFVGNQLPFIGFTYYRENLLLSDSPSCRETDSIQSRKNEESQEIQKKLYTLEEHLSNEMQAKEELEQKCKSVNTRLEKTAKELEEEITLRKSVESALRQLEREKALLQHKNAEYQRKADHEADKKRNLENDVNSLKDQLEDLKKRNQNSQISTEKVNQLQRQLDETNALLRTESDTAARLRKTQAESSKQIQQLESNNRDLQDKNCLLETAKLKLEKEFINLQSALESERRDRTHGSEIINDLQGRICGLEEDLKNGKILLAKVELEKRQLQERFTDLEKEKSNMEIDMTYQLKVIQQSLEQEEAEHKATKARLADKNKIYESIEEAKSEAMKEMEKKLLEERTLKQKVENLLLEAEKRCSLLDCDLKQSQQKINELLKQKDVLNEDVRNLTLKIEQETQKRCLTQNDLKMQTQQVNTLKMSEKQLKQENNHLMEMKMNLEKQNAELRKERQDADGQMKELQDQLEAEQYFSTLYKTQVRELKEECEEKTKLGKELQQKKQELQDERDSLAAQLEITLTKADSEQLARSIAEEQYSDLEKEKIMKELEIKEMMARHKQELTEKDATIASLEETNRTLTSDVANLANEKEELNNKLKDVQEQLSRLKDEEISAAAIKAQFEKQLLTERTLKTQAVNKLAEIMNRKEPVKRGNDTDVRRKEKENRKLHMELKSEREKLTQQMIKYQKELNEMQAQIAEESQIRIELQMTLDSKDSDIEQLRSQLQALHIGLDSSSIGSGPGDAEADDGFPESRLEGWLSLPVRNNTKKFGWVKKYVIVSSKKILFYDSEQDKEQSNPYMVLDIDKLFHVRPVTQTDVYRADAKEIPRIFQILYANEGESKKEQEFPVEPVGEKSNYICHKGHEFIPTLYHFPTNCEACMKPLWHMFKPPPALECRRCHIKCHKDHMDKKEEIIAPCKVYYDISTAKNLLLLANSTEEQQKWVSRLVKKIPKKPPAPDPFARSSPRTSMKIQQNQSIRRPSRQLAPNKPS
- TEST_METHOD_NOTES: ROCK assay: phosphorylation of FITC peptide substrate, LABCHIP 3000 mobility shift
- Format: biochemical
- CONDITION: 5 μM ATP, 1.5 μM peptide substrate; read-out: ROCK2 Activity (ROCK IC50 range)
QUANTITY_KIND: IC50

{"COMPOUND": "O=C(N[C@H]1CC2(C1)C[C@H](c1n[nH]c(=O)c3ccccc31)C2)c1cnn2cc(O[C@@H]3CCOC3)ccc12 (some centres unmarked) [Example 121]", "ASSAYED_TARGET": "ROCK2 (Homo sapiens)", "RESULT": "0.2 to 2 nM"}
{"COMPOUND": "CC(C)(O)Cn1nc(C(=O)NC2CC3(C2)CC(c2n[nH]c(=O)c4ccccc24)C3)c2ccc(-c3c(F)cccc3F)cc21 (centres unmarked)", "ASSAYED_TARGET": "ROCK2 (Homo sapiens)", "RESULT": "2.01 to 5 nM"}
{"COMPOUND": "[H][C@]1(c2n[nH]c(=O)c3ccccc32)C[C@]2(C[C@@H](NC(=O)c3cnc4cc(-c5cnn(C6CCOCC6)c5)ccn34)C2)C1 (some centres unmarked)", "ASSAYED_TARGET": "ROCK2 (Homo sapiens)", "RESULT": "0.2 to 2 nM"}
{"COMPOUND": "CC(C)(O)Cn1nc(C(=O)NC2CC3(C2)CC(c2n[nH]c(=O)c4ccccc24)C3)c2ccc(-c3cnoc3)cc21 (centres unmarked)", "ASSAYED_TARGET": "ROCK2 (Homo sapiens)", "RESULT": "5.1 to 15 nM"}
{"COMPOUND": "Cn1cc(-c2ccc(NC(=O)NC3CC4(C3)CC(c3n[nH]c(=O)c5ccccc35)C4)cc2)cn1 (centres unmarked)", "ASSAYED_TARGET": "ROCK2 (Homo sapiens)", "RESULT": "5.1 to 15 nM"}
{"COMPOUND": "O=C(NC1CC2(C1)CC(c1n[nH]c(=O)c3ccccc13)C2)c1cnn2cc(OC3CCOC3)ccc12 (centres unmarked)", "ASSAYED_TARGET": "ROCK2 (Homo sapiens)", "RESULT": "0.2 to 2 nM"}

According to the records, this compound [H][C@]1(c2n[nH]c(=O)c3ccccc32)C[C@]2(C[C@@H](NC(=O)c3cnc4cc(OCc5ccccc5)ccn34)C2)C1 (some centres unmarked) displays IC50 of 0.2 to 2 nM

Note to self: IC50 recorded for [H][C@]1(c2n[nH]c(=O)c3ccccc32)C[C@]2(C[C@@H](NC(=O)c3ccc(OC)nc3)C2)C1 (some centres unmarked) was 15.1 to 100 nM

====

pIC50: −log10 of the molar value.
Measured pIC50 (UniProt O75116)

Answered examples (3):
{"COMPOUND": "O=C(N[C@H]1CC2(C1)C[C@H](c1n[nH]c(=O)c3ccccc31)C2)c1ccn(CC(F)(F)F)n1 (single isomer, unassigned)", "ASSAYED_TARGET": "UniProt O75116", "QUANTITY_KIND": "pIC50", "RESULT": "7.82 to 8.29"}
{"COMPOUND": "CC(C)(O)Cn1nc(C(=O)NC2CC3(C2)CC(c2n[nH]c(=O)c4ccccc24)C3)c2ccc(F)cc21 (stereo not shown)", "ASSAYED_TARGET": "UniProt O75116", "QUANTITY_KIND": "pIC50", "RESULT": "8.30 to 8.70"}
{"COMPOUND": "Cc1sc(N2CCC(F)C2)nc1C(=O)NC1CC2(C1)CC(c1n[nH]c(=O)c3ccccc13)C2 (stereo not shown)", "ASSAYED_TARGET": "UniProt O75116", "QUANTITY_KIND": "pIC50", "RESULT": "8.30 to 8.70"}

Attention now turns to another entry.
For record O=C(NC1CC2(C1)CC(c1n[nH]c(=O)c3ccccc13)C2)c1cnn(-c2ccccc2)c1 (stereo not shown) the listed pIC50 is 7.00 to 7.82
